target_or_test_system: T1, recombinant his-tag human LAG3-ECD protein (human, UniProt P18627 23-450)
T1 construct: extracellular domain; not shown: his tag
T1 sequence (looked up): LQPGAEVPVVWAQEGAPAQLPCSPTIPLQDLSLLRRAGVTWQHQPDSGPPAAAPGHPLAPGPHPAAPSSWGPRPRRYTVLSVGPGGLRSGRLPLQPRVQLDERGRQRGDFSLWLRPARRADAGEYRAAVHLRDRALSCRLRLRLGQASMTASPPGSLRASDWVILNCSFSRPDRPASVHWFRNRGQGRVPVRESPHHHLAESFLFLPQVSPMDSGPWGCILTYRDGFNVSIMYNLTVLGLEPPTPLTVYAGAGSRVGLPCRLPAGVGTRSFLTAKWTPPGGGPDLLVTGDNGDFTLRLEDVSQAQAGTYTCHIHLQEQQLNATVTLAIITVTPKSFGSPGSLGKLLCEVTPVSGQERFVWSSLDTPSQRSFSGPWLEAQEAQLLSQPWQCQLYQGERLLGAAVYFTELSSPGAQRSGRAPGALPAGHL
experimental_details: SPR Biacore T200, capture method as Example 2.7
pKd: −log10 of the molar value.
Quick rule for you: pKd at 9 or higher means Yes, lower means No.

Use these answered entries as a reference point.
1. 147H 3807b (antibody, V domains shown, also called B3807b) VH: EVQLVQSGAEVKKPGASVKVSCKASGYTFTNYWLGWIKQAPGQGLEWIGDIYPGGDYIVYNEKFKGKATLTADTSISTAYMELSRLRSDDTAVYYCARPNLPKDHWGQGTTVTVSS VL: DIVMTQSPLSLPVTPGEPASISCRSSKSLLHSNAITYLYWYLQKPGQSPQLLIYQVSNLASGVPDRFSGSGSGTDFTLKISRVEAEDVGVYYCAQYLELPWTFGGGTKVEIK = Yes
2. 147H 3809 (antibody, V domains shown) VH: EVQLVQSGAEVKKPGASVKVSCKASGYLFTNYWLGWIKQAPGQGLEWIGDIYPGGDYIVYNEKFKGKATLTADTSISTAYMELSRLRSDDTAVYYCARPNLPKDHWGQGTTVTVSS VL: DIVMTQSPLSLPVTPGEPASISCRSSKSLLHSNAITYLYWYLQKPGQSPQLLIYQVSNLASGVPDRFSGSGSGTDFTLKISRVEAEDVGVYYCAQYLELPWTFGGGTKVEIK = Yes

Next up:
Has 147H-13 (antibody, V domains shown, Common light chain; human gamma 1 / kappa constant domains; also called 147H4-13) VH: EVQLVQSGAEVKKPGASVKVSCKASGYTFTNYWLGWIKQAPGQGLEWIGDIYPGGDYINYNEKFKGKATLTADTSISTAYMELSRLRSDDTAVYYCARPNLPGDYWGQGTTVTVSS VL: DIVMTQSPLSLPVTPGEPASISCRSSKSLLHSNGITYLYWYLQKPGQSPQLLIYQVSNLASGVPDRFSGSGSGTDFTLKISRVEAEDVGVYYCAQNLELPWTFGGGTKVEIK a recorded pKd greater than or equal to 9?
No
